Tested on: dl-PGE1-induced contraction of gerbil colon
Experiment: Inhibition of dl-PGE1-Induced Contraction of Gerbil Colon (prostaglandin antagonist action)
Type: cell-based, gerbils (Meriones unguiculatus)
Conditions: Meriones unguiculatus, 1 min; sub-maximal challenge, 20 ng./ml. dl-PGE1; 50% inhibition of maximum response; read-out: ID50 vs. 20 ng. of PGE1/ml.
Experimental: The compounds of this invention are also useful as antagonists of prostaglandin action and accordingly they are potentially useful as anti-inflammatory agents, and as agents for the treatment of periodontal diseases and diarrhea. […] Contractions were recorded on a Poly-Viso ® polygraph (Sanborn Co., Cambridge, Massachusetts). […] During the washout period, the tissue was rinsed with a measured amount equalling 8 volumes of medium. […]
Quantity: IC50

Worked set:
CCCCCCC=CC1CC(C#N)C(=O)C1CCCCCCC(=O)OCC (stereo not shown) = 10 to 25 µg/mL
CCCC/C=C/[C@H]1CCC(=O)[C@@H]1CCCCCCC(=O)O (relative stereo) = 1 to 2 µg/mL
CC(C)CCC=CC1CCC(O)C1CCCCCCC(=O)O (stereo not shown) = 5 to 10 µg/mL

Now look at this entry.
Lookup: Which IC50 reading was recorded for the molecule CCCCCC/C=C/[C@H]1CCC(=O)[C@@H]1CCCCCC(CC)C(=O)O (stereo partly drawn) [9-oxo-2-ethyl-13-trans-prostenoic acid, 2-ethyl-9-oxo-13-trans-prostenoic acid] ?
Found: 4 to 5 µg/mL

* * *

Measured MIC on Trichophyton rubrum E 97 follows.
Express the result in µg/mL but write the number alone.

CCCCC/C=C/[C@H]1CCC(=O)[C@@H]1CCCCCCC(=O)O (relative stereo) [9-oxo-20-nor-13-trans-prostenoic acid] = 50
O=C(O)CCCCCC[C@H]1C(=O)CC[C@@H]1/C=C/CCCCCCCl (relative stereo) [20-chloro-9-oxo-13-trans-prostenoic acid] = 62
CCOC(=O)CCCCCC[C@H]1C(=O)CC[C@@H]1/C=C/C(C)C (relative stereo) = 250
CC/C=C\CC/C=C/[C@@H]1CCC(=O)[C@H]1CCCCCCC(=O)O (relative stereo) [9-oxo-13-trans-17-cis-prostadienoic acid] = 125
CCCCCC/C=C/[C@@H]1CCC(=O)[C@H]1CC(=O)O (relative stereo) = 250

Lookup: What measured MIC goes with O=C(O)CCCCCC[C@@H]1C(=O)CC[C@H]1/C=C/CCCCl (relative stereo) ?
Found: 250

* * *

Tested on: bronchospasms elicited by 5-hydroxytryptamine
Test: Bronchodilator Activity (Konzett Assay) against 5-hydroxytryptamine
Type: in vivo, guinea pigs
Conditions: Cavia porcellus; three logarithmic cumulative intravenous doses
Procedure: Bronchodilator activity was determined in guinea pigs against bronchospasms elicited by intravenous injections of 5-hydroxytryptamine, histamine or acetylcholine by the Konzett procedure. […] In Table IIIC which follows bronchodilator activity for representative compounds of this invention against one or more of the three spasmogenic agents is expressed as an ED50 determined from the results obtained with three logarithmic cumulative intravenous doses.
// reported ED50 per item
Express your answer in mg/kg, writing the number without its unit.

Worked examples, 10 molecules total:
CCCCCC/C=C/[C@@H]1CCC(=O)[C@H]1C/C=C\CCCC(=O)O (relative stereo) [9-oxo-5-cis,13-trans-prostadienoic acid, 9-oxo-5-cis-13-trans-prostadienoic acid] = 1.5
CCCCCC/C=C/[C@H]1CCC(=O)[C@@H]1CCCCCCC(=O)O (relative stereo) [9-oxo-13-trans-prostenoic acid] = 0.077
CCOCCC/C=C/[C@@H]1CCC(=O)[C@H]1CCCCCCC(=O)O (relative stereo) [18-oxa-9-oxo-13-trans-prostenoic acid] = 1.92
CCCCCC/C=C/[C@@H]1CC[C@@H](O)[C@H]1CCCCCCC(=O)O (relative stereo) [9α-hydroxy-13-trans-prostenoic acid] = 0.559
CCCCCC/C=C/[C@@H]1CCC(=O)[C@H]1CCCCC(C)(C)CC(=O)O (relative stereo) = 12
CCCC=CC1CCC(=O)C1CCCCCC(F)C(=O)O (stereo not drawn) = 8.36
CCCC/C=C/[C@H]1CCC(=O)[C@@H]1CCCCCCC(=O)O (relative stereo) = 2.16
CCCCCCC=CC1CCC(C)(O)C1CCCCCCC(=O)O (stereo not drawn) = 0.756
CCSCCC/C=C/[C@@H]1CCC(=O)[C@H]1CCCCCCC(=O)O (relative stereo) [9-oxo-18-thia-13-trans-prostenoic acid] = 1.99
CCCCCC/C=C/[C@@H]1CCC(=NNc2ccc(C(=O)O)cc2)[C@H]1CCCCCCC(=O)O (relative stereo) = 3.2

Lookup: So what does the record say about ED50 for CCCCCCC/C=C/[C@@H]1CCC(=O)[C@H]1CCCCCCC(=O)O (relative stereo) [20-methyl-9-oxo-13-trans-prostenoic acid] ?
Found: 3.42

Lookup: What does the record list as ED50 for CCCCCCC=CC1CCC(O)(c2ccccc2)C1CCCCCCC(=O)O (stereo not drawn) ?
Found: 2.44

Lookup: Which ED50 reading was recorded for the molecule CCCCCC/C=C/[C@H]1CCC(=O)[C@@H]1CCCCCC(CC)C(=O)O (stereo partly drawn) [9-oxo-2-ethyl-13-trans-prostenoic acid, 2-ethyl-9-oxo-13-trans-prostenoic acid] ?
Found: 2.91
